What follows is a collection of pIC50 values obtained with AT2 Receptor (AT2R) (Homo sapiens (Human), UniProt P50052).
Sequence (P50052 whole entry): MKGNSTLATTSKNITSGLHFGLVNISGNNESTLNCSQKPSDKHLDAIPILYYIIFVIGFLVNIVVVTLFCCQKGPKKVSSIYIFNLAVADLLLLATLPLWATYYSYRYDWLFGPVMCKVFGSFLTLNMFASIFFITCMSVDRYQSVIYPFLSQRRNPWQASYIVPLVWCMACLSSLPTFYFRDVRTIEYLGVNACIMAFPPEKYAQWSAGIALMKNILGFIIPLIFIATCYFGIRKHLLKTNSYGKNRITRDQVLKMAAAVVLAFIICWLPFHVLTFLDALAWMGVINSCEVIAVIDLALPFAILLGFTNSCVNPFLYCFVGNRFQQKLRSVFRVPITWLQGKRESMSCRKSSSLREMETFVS
Scale for pIC50: -log10 of concentration given in mol/L; no unit attached.

// below: answered molecules
Cc1cc(CN(C)C(=O)N2[C@H]3CC[C@@H]2[C@@H](C(=O)O)N(C(=O)N(c2ccccc2)c2ccccc2)C3)cs1: 7.41
CN(Cc1ccc(Cl)cc1)C(=O)N1[C@H]2CC[C@@H]1[C@@H](C(=O)O)N(C(=O)N(c1ccccc1)c1ccccc1)C2: 8.01
O=C(NC1CC2CCC1C(C(=O)O)N2C(=O)C(c1ccccc1)c1ccccc1)c1ccccc1 (stereo in doubt): 6.12
COc1ccc(CN(C)C(=O)N2[C@H]3CC[C@@H]2[C@@H](C(=O)O)N(C(=O)N(c2ccccc2)c2ccccc2)C3)cc1: 8.35
O=C(O)[C@H]1[C@@H]2CC[C@H](CN1C(=O)C(c1ccccc1)c1ccccc1)N2C(=O)C(c1ccccc1)c1ccccc1 [Compound C4]: 8.01
CN(Cc1ccc2ncccc2c1)C(=O)N1[C@H]2CC[C@@H]1[C@@H](C(=O)O)N(C(=O)N(c1ccccc1)c1ccccc1)C2: 8.79

[in] For AT2 Receptor (AT2R) (Homo sapiens (Human), UniProt P50052), provide pIC50 of `O=C(O)[C@@H]1[C@H]2CC[C@@H](CN1C(=O)N(c1ccccc1)c1ccccc1)N2C(=O)N(Cc1ccc(Cl)cc1)CC1CC1` please.
[out] 7.94
